# measured-on: GHSR-1a (HEK293/GHSR1a cell line) (Homo sapiens)
# Construct: expressed in transfected cells; host or cells: HEK293/GHSR1a cell line
# Sequence (Q92847 whole entry): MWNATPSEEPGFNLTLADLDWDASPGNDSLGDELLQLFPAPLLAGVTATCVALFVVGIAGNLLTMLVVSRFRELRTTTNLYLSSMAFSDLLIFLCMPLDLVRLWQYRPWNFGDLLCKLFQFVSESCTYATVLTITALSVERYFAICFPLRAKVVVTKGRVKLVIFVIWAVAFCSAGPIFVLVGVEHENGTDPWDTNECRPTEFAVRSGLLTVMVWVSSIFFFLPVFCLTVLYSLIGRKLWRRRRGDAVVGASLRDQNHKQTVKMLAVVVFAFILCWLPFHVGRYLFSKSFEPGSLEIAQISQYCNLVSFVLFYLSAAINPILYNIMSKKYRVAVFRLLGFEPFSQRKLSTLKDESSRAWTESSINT
# assay-summary: Ghrelin antagonist potency (IC50) with calcium FLIPR assay, ghrelin 10 nM
# Assay type: cell-based
# experimental-setup: ghrelin antagonist potency, read-out: IC50 (Activity)
# IC50 per record follows
metric: IC50

molecule=C[C@H](NC(=O)Nc1ccc(S(=O)(=O)Nc2ccc(CC(C)(C)O)cc2)cc1)c1cccc(Cl)c1Cl observed="515 nM"
molecule=C[C@@H](NC(=O)Nc1ccc(S(=O)(=O)Cc2ccc3c(c2)CNC3)cc1)c1ccccc1 observed="278 nM"
molecule=C[C@H](NC(=O)Nc1ccc(S(=O)(=O)Nc2ccc(CC(C)(C)N)cc2)cc1)c1cccc(Cl)c1Cl.Cl observed="7.8 nM"
molecule=C[C@H](NC(=O)Nc1ccc(S(=O)(=O)Nc2ccc3[nH]cnc3c2)cc1)c1cccc(Cl)c1Cl observed="2250 nM"
molecule=C[C@H](NC(=O)Nc1ccc(S(=O)(=O)Nc2ccc(N)nn2)cc1)c1cccc(Cl)c1Cl observed="3330 nM"
molecule=C[C@H](NC(=O)Nc1ccc(S(=O)(=O)Cc2ccc3c(c2)COCC3)cc1)c1cccc(Cl)c1Cl observed="1970 nM"
molecule=COc1ccc(C(C)(C)NC(=O)Nc2ccc(S(=O)(=O)Nc3ccc(CC(C)(C)N)cc3)cc2)c(Cl)c1Cl observed="9.5 nM"
molecule=CNC(C)(C)Cc1ccc(NS(=O)(=O)c2ccc(NC(=O)N[C@@H](C)c3ccc(-c4cnccn4)c(Cl)c3Cl)cc2)cc1 observed="7.7 nM"
molecule="CC(NC(=O)Nc1ccc(S(=O)(=O)Cc2ccc3c(c2)CNC3)cc1)c1cccc2ccccc12.Cl (stereo not shown)" observed="4.8 nM"
molecule=CC(C)(N)Cc1ccc(NS(=O)(=O)c2ccc(NC(=O)NCc3ccccc3)cc2)cc1.Cl observed="288 nM"
molecule=C[C@H](NC(=O)Nc1ccc(S(=O)(=O)CCN2CCOCC2)cc1)c1cccc(Cl)c1Cl observed="≥ 30000 nM"
molecule=C[C@H](NC(=O)Nc1ccc(S(=O)(=O)Cc2ccc3c(c2)CNC3)cc1)c1cccc(Cl)c1Cl.Cl observed="5.8 nM"
molecule=C[C@H](NC(=O)Nc1ccc(S(=O)(=O)Cc2ccc3c(c2)CCN(C)C3)cc1)c1cccc(Cl)c1Cl observed="5 nM"
molecule=O=C(NCc1ccccc1)Nc1ccc(S(=O)(=O)Cc2ccc(CO)cc2)cc1 observed="≥ 30000 nM"
molecule=CC(C)CNC(=O)Nc1ccc(S(=O)(=O)Cc2ccc3c(c2)CN(C)C3)cc1 observed="1640 nM"
molecule=C[C@H](NC(=O)Nc1ccc(S(=O)(=O)Nc2ccc(-c3cnc[nH]3)cc2)cc1)c1cccc(Cl)c1Cl observed="427 nM"

----------
# assay-summary: Metabolic stability in mouse liver microsomes
# Type: in vitro ADME
metric: Metabolic Stability Study M = mouse (µL/min/mg)

compound="CCc1ccc(Cl)c(C(C)NC(=O)Nc2ccc(S(=O)(=O)Cc3ccc4c(c3)CN(C)C4)cc2)c1 (stereo not shown) [H1286]" reading_qualifier== observed=162.4
compound="C[C@@H](NC(=O)Nc1ccc(S(=O)(=O)Cc2ccc3c(c2)CN(C)C3)cc1)c1ccccc1 [H1356]" reading_qualifier== observed=126
compound="CC(NC(=O)Nc1ccc(S(=O)(=O)Cc2ccc3c(c2)CN(C)C3)cc1O)c1ccccc1 (stereo not shown) [H1448]" reading_qualifier== observed=20.8
compound="COc1cc(S(=O)(=O)Cc2ccc3c(c2)CCN(C)C3)ccc1NC(=O)NC(C)c1ccccc1 (stereo not shown) [H1387]" reading_qualifier== observed=167.5
compound="C[C@@H](NC(=O)Nc1ccc(S(=O)(=O)Cc2cc(F)c3c(c2)CNC3)cc1)c1ccccc1.Cl [H1394]" reading_qualifier== observed=182.5
compound="COc1cc(NC(=O)NC(C)c2ccccc2)ccc1S(=O)(=O)Cc1ccc2c(c1)CNC2 (stereo not shown) [H1461]" reading_qualifier=< observed=10
compound="CC(NC(=O)Nc1ccc(S(=O)(=O)Cc2cnc3c(c2)CN(C)C3)cc1)c1ccccc1 (stereo not shown) [H1323]" reading_qualifier== observed=58.5

----------
Item-by-item account of Metabolic Stability Study M = mouse
# assay-summary: Metabolic stability in mouse liver microsomes
# Format: in vitro ADME
metric: Metabolic Stability Study M = mouse (µL/min/mg)

compound="Cl.O=C(NCc1cccc(Cl)c1Cl)Nc1ccc(S(=O)(=O)Cc2ccc3c(c2)CNC3)cc1 [H1057]" metric="Metabolic Stability Study M = mouse" observed=10.8
compound="CCN1CCc2cc(NS(=O)(=O)c3ccc(NC(=O)N[C@@H](C)c4ccc(OC)c(Cl)c4Cl)cc3)ccc2C1 [H1018]" metric="Metabolic Stability Study M = mouse" observed=46.3
compound="CC(NC(=O)Nc1ccc(S(=O)(=O)Cc2ccc3c(c2)CC(C)N(C)C3)cc1)c1ccccc1 (stereo not shown) [H1407]" metric="Metabolic Stability Study M = mouse" observed=84.1
compound="COc1cccc(F)c1C(C)NC(=O)Nc1ccc(S(=O)(=O)Cc2ccc3c(c2)CN(C)C3)cc1 (stereo not shown) [H1454]" metric="Metabolic Stability Study M = mouse" observed=193.3
compound="CC(NC(=O)Nc1ccc(S(=O)(=O)Cc2ccc3c(c2)CNC3)cc1F)c1ccccc1F.Cl (stereo not shown) [H1389]" metric="Metabolic Stability Study M = mouse" observed=21.2
compound="COC(=O)c1cc(NC(=O)NC(C)c2ccccc2)ccc1S(=O)(=O)Cc1ccc2c(c1)CNC2 (stereo not shown) [H1505]" metric="Metabolic Stability Study M = mouse" observed=135.5
compound="CC(NC(=O)Nc1ccc(S(=O)(=O)Cc2ccc3c(c2)CNC3)cc1)c1cc(F)cc(F)c1 (stereo not shown) [H1445]" metric="Metabolic Stability Study M = mouse" observed=17.3
compound="CC(NC(=O)Nc1ccc(S(=O)(=O)Cc2ccc3c(c2)CNC3)c(C2CC2)c1)c1ccccc1 (stereo not shown) [H1506]" metric="Metabolic Stability Study M = mouse" observed=132.5
compound="COc1cc(S(=O)(=O)Cc2ccc3c(c2)CN(C)C3)ccc1NC(=O)NC(C)c1ccccc1F (stereo not shown) [H1426]" metric="Metabolic Stability Study M = mouse" observed=80.6
compound="Cc1oc(=O)oc1COC(=O)N1Cc2ccc(CS(=O)(=O)c3ccc(NC(=O)NC(C)c4ccccc4)cc3)cc2C1 (stereo not shown) [H1256]" metric="Metabolic Stability Study M = mouse" observed=272.6
compound="CCN1Cc2ccc(CS(=O)(=O)c3ccc(NC(=O)NC(C)c4ccccc4)cc3)cc2C1 (stereo not shown) [H1221]" metric="Metabolic Stability Study M = mouse" observed=107.7
compound="CCC(NC(=O)Nc1ccc(S(=O)(=O)Cc2ccc3c(c2)CN(C)C3)cc1)c1ccccc1 (stereo not shown) [H1235]" metric="Metabolic Stability Study M = mouse" observed=87.1
compound="C[C@H](NC(=O)Nc1ccc(S(=O)(=O)N(C)c2ccc(CC(C)(C)N)cc2)cc1)c1cccc(Cl)c1Cl.Cl [H0971]" metric="Metabolic Stability Study M = mouse" observed=24.8
compound="COc1cc(NC(=O)N(O)C(C)c2ccccc2)ccc1S(=O)(=O)Cc1ccc2c(c1)CN(C)C2 (stereo not shown) [H1516]" metric="Metabolic Stability Study M = mouse" observed=35.1
compound="CC(NC(=O)Nc1ccc(S(=O)(=O)Cc2ccc3c(c2)CN(C)C3)c(O)c1)c1ccccc1.O=C(O)C(F)(F)F (stereo not shown) [H1487]" metric="Metabolic Stability Study M = mouse" observed=16.9

----------
# measured-on: GHSR-1a (HEK293/GHSR1a cell line) (Homo sapiens)
# Construct: expressed in transfected cells; host or cells: HEK293/GHSR1a cell line
# assay-summary: Ghrelin antagonist potency (IC50) with calcium FLIPR assay, ghrelin 10 nM
# Format: cell-based
# experimental-setup: ghrelin antagonist potency, read-out: IC50 (Activity)
metric: log10 of IC50 (log10 of the value in nM)

compound=O=C(NCc1ccccc1Cl)Nc1ccc(S(=O)(=O)Cc2ccc3c(c2)CCNC3)cc1 observed=2.05
compound=C[C@H](NC(=O)Nc1ccc(S(=O)(=O)Nc2ccc(C(C)(C)N)cc2)cc1)c1cccc(Cl)c1Cl observed=3.51
compound=Cc1oc(=O)oc1CN1CCc2cc(CS(=O)(=O)c3ccc(NC(=O)N[C@@H](C)c4cccc(Cl)c4Cl)cc3)ccc2C1 observed=1.15
compound="CC(NC(=O)Nc1ccc(S(=O)(=O)Nc2ccc3c(c2)CNC3)cc1)c1cccc2ccccc12 (centres unmarked)" observed=0.63
compound=O=C(NCc1cccc(Cl)c1)Nc1ccc(S(=O)(=O)Cc2ccc3c(c2)CCNC3)cc1 observed=2.58
compound=C[C@H](NC(=O)Nc1ccc(S(=O)(=O)Cc2ccc3c(c2)CCN3)cc1)c1cccc(Cl)c1Cl observed=2.94
compound=CN1Cc2ccc(CS(=O)(=O)c3ccc(NC(=O)NCc4ccccc4)cc3)cc2C1 observed=2.51
compound=C[C@H](NC(=O)Nc1ccc(S(=O)(=O)Nc2ccc(CCO)cc2)cc1)c1cccc(Cl)c1Cl observed=2.69
compound=COCc1ccc(CS(=O)(=O)c2ccc(NC(=O)N[C@@H](C)c3cccc(Cl)c3Cl)cc2)cc1 observed=3.38
compound=CC(C)(N)Cc1ccc(CS(=O)(=O)c2ccc(NC(=O)NCc3cccc(Cl)c3Cl)cc2)cc1 observed=2.66
compound=CCOc1ccc(Cl)c(C(=O)NC(=O)Nc2ccc(S(=O)(=O)Cc3ccc4c(c3)CNC4)cc2)c1 observed=1.95
compound=C[C@H](NC(=O)Nc1ccc(S(=O)(=O)Cc2ccc(COS(=O)(=O)O)cc2)cc1)c1cccc(Cl)c1Cl observed=3.52
compound=CCNC(=O)Nc1ccc(S(=O)(=O)Cc2ccc3c(c2)CNC3)cc1 observed=4.17
compound=COc1ccc(CNC(=O)Nc2ccc(S(=O)(=O)Cc3ccc4c(c3)CNC4)cc2)nc1 observed=3.49
compound=O=C(NCc1ccsc1)Nc1ccc(S(=O)(=O)Cc2ccc3c(c2)CNC3)cc1 observed=3.16
compound="CC(NC(=O)Nc1ccc(S(=O)(=O)Cc2ccc3c(c2)CN(C)C3)cc1)c1ccccc1 (centres unmarked)" observed=1.58
compound=CCc1ccc(Cl)c(C(=O)NC(=O)Nc2ccc(S(=O)(=O)Cc3ccc4c(c3)CNC4)cc2)c1 observed=2.45
compound=CN(C)C(C)(C)Cc1ccc(CS(=O)(=O)c2ccc(NC(=O)NCc3cccc(Cl)c3Cl)cc2)cc1 observed=0.98
compound=C[C@H](NC(=O)Nc1ccc(S(=O)(=O)NCCC2CCNCC2)cc1)c1cccc(Cl)c1Cl observed=2.67
compound=CC(C)(N)Cc1ccc(NS(=O)(=O)c2ccc(NC(=O)NCc3cccc(Cl)c3Cl)cc2)cc1 observed=1.64
compound=O=C(NC(=O)c1cc(N2CCOCC2)ccc1Cl)Nc1ccc(S(=O)(=O)Nc2ccc3c(c2)CNC3)cc1 observed=3.14
compound=C[C@H](NC(=O)Nc1ccc(S(=O)(=O)Nc2ccc(CCO)cc2)cc1)c1ccccc1Cl observed=3.16
compound=C[C@H](NC(=O)Nc1ccc(S(=O)(=O)Nc2ccc3c(c2)CCNC3)cc1)c1cccc(Cl)c1Cl.Cl observed=0.57
compound=C[C@H](NC(=O)Nc1ccc(S(=O)(=O)Cc2ccc(-c3cccnc3)cc2)cc1)c1cccc(Cl)c1Cl observed=3.72
compound=COc1ccc([C@H](C)NC(=O)Nc2ccc(S(=O)(=O)Nc3ccc4c(c3)CCNC4)cc2)c(Cl)c1Cl.Cl observed=1.30
compound=C[C@H](NC(=O)Nc1ccc(S(=O)(=O)Cc2ccc3c(c2)CCNC3)cc1)c1cccc(Cl)c1Cl observed=0.40
compound="CC(NC(=O)Nc1ccc(S(=O)(=O)Cc2ccc3c(c2)CCNC3)cc1)c1ccccc1Cl (centres unmarked)" observed=1.24
compound="CC(NC(=O)N(C)c1ccc(S(=O)(=O)Cc2ccc3c(c2)CNC3)cc1)c1ccccc1 (centres unmarked)" observed=3.64
